assay: Cytotoxicity against human JIMT1 cells assessed as cell viability at 20 uM after 48 hrs by MTS assay relative to control
Type: cell-based, JIMT-1
condition.description: read-out: Activity
readout.kind: viability at 48 h, 20 µM

# input compound: Cl.Cl.Cl.Cl.Cl.Cl.Cl.NCCCC[C@H](N)C(=O)N(CCCCCCCCCCCCO[C@@H]1[C@@H](O[C@H]2O[C@H](CO)[C@@H](O)[C@H](N)[C@H]2O)[C@H](N)C[C@H](N)[C@H]1O[C@H]1O[C@H](CN)[C@@H](O)C[C@H]1N)Cc1c2ccccc2c(Cl)c2ccccc12 ; wanted: its viability at 48 h, 20 µM
> 50%
